# ASSAY_TEXT: folding stability dG unfold (combined trypsin and chymotrypsin); higher = more stable
Please respond with reported folding stability dG unfold for every item in the list.
Numbers only here, please. The scale is kcal/mol.

I have this sequence here, SAGGSAFEEVKKKYPNAKWEKIGDEGDTAVYRLTFPGGEKILITVPTLPETDEPVVEVTYVPKGEESAGGSA [r15_547_JUSTAS] , and I need its recorded folding stability dG unfold.
2.82

I am curious: what folding stability dG unfold value has been reported for SAGGSAGGSAGEVEFELTVKLTVTHPSGGKSEIEVPVKITLPVVDISKEILESNPEVVKKANSAGGSAGGSA [r18_114_TrMRF] ?
-0.108

Given the entry SAGKPEWKLVETIEVTIEVPPGVTVEEIEKKLLEALKEKGIKEVKIEVTYDKENKTITVRVEVLVKKEKSAG [r5_924_TrROS_Hall] , report its measured folding stability dG unfold.
1.66

State the recorded folding stability dG unfold for this entry: SAGGSAGGSAGWFFVMDIKYEYRQTPDGKTEQEMSIEMKPIPPIPAEDLKEKLGLPPEDIASAGGSAGGSAG [r3_338_TrROS]
1.94

Given the sequence SAGGSAKTITIYAPDLPLSEAIETLERLIKELGLTPVSVSVSYNPETGTVTITVTLPNGDTLTLHVSAGGSA [r15_958_TrMRF] , what is its reported folding stability dG unfold?
2.99

# input sequence: SAGGSAGGSAGGQTIVIDSRLLRTALENGDLEKLKALVEEAGYNPENAKIYLITPEELKESAGGSAGGSAGG [r7_3_TrMRF] ; wanted: its folding stability dG unfold
0.464

I have this sequence here, SAGGSAGGSAGSKDTMYLLKVKDLGENELKETYIEVPAEKVQEVIDALSSDPNLEIEVIPSAGGSAGGSAGG [r17_50_TrMRF] , and I need its recorded folding stability dG unfold.
1.11

I would be grateful if you could share the reported folding stability dG unfold for SAGGSAGGSKKKTVEEILKELKKKKNKIIKIKYKDGSTYYINIKTGKIIKLKNIKNVKIEILPSAGGSAGGS [r20_44_TrROS_Hall] .
3.55

What folding stability dG unfold value was documented for this sequence, SAGGSAGGSKPIKTKATIPLPNGKTITADVEIVVLPDGNILLRVPSGKVILVPPNYPVTFEDASAGGSAGGS [r20_227_TrMRF] ?
1.67

Looking for the measured folding stability dG unfold of SAGGSAGGSAGGMLLSPEEAEKLAAELKAKENVTIKVTPEPSPGKVKVEIIKTKGPKLVSAGGSAGGSAGGS [r10_402_JUSTAS] , can you help?
0.418

Using the record for SAGMPSVTVTPVTVTVEGTAPPDLTEEELRADPTYTRTVEIDATVTLYPETGTVTVTLPGGVTVTLPSPSAG [r5_701_JUSTAS] , report its folding stability dG unfold.
0.79
